Consider the following IC50 data for Polyunsaturated fatty acid 5-lipoxygenase (Rattus norvegicus, UniProt P12527), collected from several reports.
Threshold 7000 nM: IC50 strictly smaller gives condition met, otherwise condition not met.

| molecule | testedOn | discreteLabel |
| --- | --- | --- |
| CCC(C1=C(C)C(=O)C(C)=C(C)C1=O)c1cccnc1 (stereo not drawn) | Polyunsaturated fatty acid 5-lipoxygenase (Rattus norvegicus, UniProt P12527) | condition met |
| O=C(O)CCC(=O)N(O)c1cccc(OCc2ccc3ccccc3c2)c1 | Polyunsaturated fatty acid 5-lipoxygenase (Rattus norvegicus, UniProt P12527) | condition not met |
| CC1=C(/C=C/C(=O)O)C(=O)C(C)=C(Cc2cccnc2)C1=O | Polyunsaturated fatty acid 5-lipoxygenase (Rattus norvegicus, UniProt P12527) | condition not met |
| COc1ccc(Cc2oc3c(Cl)ccc(O)c3c2C)cc1 | Polyunsaturated fatty acid 5-lipoxygenase (Rattus norvegicus, UniProt P12527) | condition met |
| CCCCC/C=C\C/C=C\C\C=C/C=C/C(CCCC(=O)O)=N/O | Polyunsaturated fatty acid 5-lipoxygenase (Rattus norvegicus, UniProt P12527) | condition not met |
| CN(O)C(=O)Cc1cccc(OCc2ccc3ccccc3n2)c1 | Polyunsaturated fatty acid 5-lipoxygenase (Rattus norvegicus, UniProt P12527) | condition met |
| CCCCC/C=C\C/C=C\C/C=C\C=C\C(CCCC(=O)O)CCC(=O)NO (stereo not drawn) | Polyunsaturated fatty acid 5-lipoxygenase (Rattus norvegicus, UniProt P12527) | condition met |
| Cc1ccc(SCCCCC(CN)c2ccc(F)cc2)cc1.Cl (stereo not drawn) | Polyunsaturated fatty acid 5-lipoxygenase (Rattus norvegicus, UniProt P12527) | condition not met |
| NC(=O)N(O)C1COc2ccc(Oc3ccccc3)cc21 (stereo not drawn) | Polyunsaturated fatty acid 5-lipoxygenase (Rattus norvegicus, UniProt P12527) | condition met |
| CC1=C(C)C(=O)C(C(C)c2cccnc2)=C(C)C1=O (stereo not drawn) | Polyunsaturated fatty acid 5-lipoxygenase (Rattus norvegicus, UniProt P12527) | condition not met |
| COc1ccc2c(c1)CCCC2N(O)C(N)=O (stereo not drawn) | Polyunsaturated fatty acid 5-lipoxygenase (Rattus norvegicus, UniProt P12527) | condition not met |
| CCCCC/C=C\C/C=C\C/C=C\C=C\C1CC(=O)CC(CC(=O)O)C1 (stereo not drawn) | Polyunsaturated fatty acid 5-lipoxygenase (Rattus norvegicus, UniProt P12527) | condition not met |
| COCCC1CN(c2ccc(OCc3ccccc3)cc2)NC1=O (stereo not drawn) | Polyunsaturated fatty acid 5-lipoxygenase (Rattus norvegicus, UniProt P12527) | condition met |
| NC(=O)N(O)C1CCCc2c(OCc3ccccc3)cccc21 (stereo not drawn) | Polyunsaturated fatty acid 5-lipoxygenase (Rattus norvegicus, UniProt P12527) | condition met |
| COc1ccc(CCCC(=O)N(C)O)cc1 | Polyunsaturated fatty acid 5-lipoxygenase (Rattus norvegicus, UniProt P12527) | condition met |
| CCCCC/C=C\C/C=C\C/C=C\C=C\C1CCCC(=O)O1 (stereo not drawn) | Polyunsaturated fatty acid 5-lipoxygenase (Rattus norvegicus, UniProt P12527) | condition not met |
| COC(=O)CCCC(=O)Nc1cccc(OCc2ccc3ccccc3n2)c1 | Polyunsaturated fatty acid 5-lipoxygenase (Rattus norvegicus, UniProt P12527) | condition not met |
| C=CCc1c(OCc2ccc3ccccc3n2)ccc2c1c(SC(C)(C)C)c(CC(C)(C)C(=O)O)n2Cc1ccc(Cl)cc1 | Polyunsaturated fatty acid 5-lipoxygenase (Rattus norvegicus, UniProt P12527) | condition not met |
| CCC(Cc1ccccc1)N(O)C(=O)Cc1ccc(OCc2ccccc2)cc1 (stereo not drawn) | Polyunsaturated fatty acid 5-lipoxygenase (Rattus norvegicus, UniProt P12527) | condition met |
| CCCCC/C=C\C/C=C\C/C=C\C=C\C(CCCC(=O)O)OC(C)=O (stereo not drawn) | Polyunsaturated fatty acid 5-lipoxygenase (Rattus norvegicus, UniProt P12527) | condition not met |
| NC(=O)N(O)C1CCCc2cc(CCc3ccccc3)ccc21 (stereo not drawn) | Polyunsaturated fatty acid 5-lipoxygenase (Rattus norvegicus, UniProt P12527) | condition met |
| COC(=O)CCC(=O)N(O)c1cccc(OCc2ccc3ccccc3n2)c1 | Polyunsaturated fatty acid 5-lipoxygenase (Rattus norvegicus, UniProt P12527) | condition met |
| COCCC1CN(c2ccccc2)NC1=O (single isomer, unassigned; (+)) | Polyunsaturated fatty acid 5-lipoxygenase (Rattus norvegicus, UniProt P12527) | condition met |
| CCCc1cc(C)c2oc(Cc3ccc(OC)cc3)c(C)c2c1O | Polyunsaturated fatty acid 5-lipoxygenase (Rattus norvegicus, UniProt P12527) | condition met |
| O=C(CCCc1ccccc1)N(O)CCc1ccccc1 | Polyunsaturated fatty acid 5-lipoxygenase (Rattus norvegicus, UniProt P12527) | condition met |
| COCCOCC1CN(c2ccccc2)NC1=O (stereo not drawn) | Polyunsaturated fatty acid 5-lipoxygenase (Rattus norvegicus, UniProt P12527) | condition met |
| COC(=O)CCC(=O)N(O)c1cccc(COc2ccc3ccccc3c2)c1 | Polyunsaturated fatty acid 5-lipoxygenase (Rattus norvegicus, UniProt P12527) | condition met |
| NC(=O)N(O)C1CCn2c1cc1cc(Oc3ccccc3)ccc12 (stereo not drawn) | Polyunsaturated fatty acid 5-lipoxygenase (Rattus norvegicus, UniProt P12527) | condition met |
| O=C(Cc1ccc(OCc2ccccc2)cc1)N(O)Cc1ccccc1 | Polyunsaturated fatty acid 5-lipoxygenase (Rattus norvegicus, UniProt P12527) | condition met |
| Cc1ccc(SCCCCCC(CN)c2ccc(F)cc2)cc1.Cl (stereo not drawn) | Polyunsaturated fatty acid 5-lipoxygenase (Rattus norvegicus, UniProt P12527) | condition not met |
| CCOC(=O)CC(=O)Nc1cccc(OCc2ccc3ccccc3n2)c1 | Polyunsaturated fatty acid 5-lipoxygenase (Rattus norvegicus, UniProt P12527) | condition not met |
| CC1=C(CCC(=O)O)C(=O)C(C)=C(Cc2cccnc2)C1=O | Polyunsaturated fatty acid 5-lipoxygenase (Rattus norvegicus, UniProt P12527) | condition met |
| O=C(CCOc1ccccc1)N(O)CCc1ccccc1 | Polyunsaturated fatty acid 5-lipoxygenase (Rattus norvegicus, UniProt P12527) | condition met |
